Tested on: Human immunodeficiency virus 1
measurementProtocol: Antiviral activity against HIV1 3B infected in human MT4 cells assessed as inhibition of virus-induced cytopathic effect by MTT assay
Assay type: functional, organism-based
testSettings: Human immunodeficiency virus 1, 3B
propertyLabel: EC50

Record O=C(O)C(O)C(O)(Cc1ccc(O)c(O)c1)C(=O)O (racemic) : what is its EC50 with Human immunodeficiency virus 1?
> 22 µM

----------
tgt: Human immunodeficiency virus type 1 integrase (Human immunodeficiency virus 1)
Sequence (Q7ZJM1 whole entry): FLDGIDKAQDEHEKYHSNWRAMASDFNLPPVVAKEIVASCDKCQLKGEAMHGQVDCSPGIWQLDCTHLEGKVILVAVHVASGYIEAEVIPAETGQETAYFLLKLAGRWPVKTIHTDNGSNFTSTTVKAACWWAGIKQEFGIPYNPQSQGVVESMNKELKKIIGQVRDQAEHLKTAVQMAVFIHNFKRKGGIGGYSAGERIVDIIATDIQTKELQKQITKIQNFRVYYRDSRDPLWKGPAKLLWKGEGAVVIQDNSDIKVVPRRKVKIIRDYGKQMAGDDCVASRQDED
measurementProtocol: Inhibition of HIV1 integrase using U5A/U5B double-stranded DNA as substrate by ELISA in presence of BSA
propertyLabel: IC50 (µM)
Answers are plain numbers, in µM.

Any idea what IC50 was measured for O=C(O)C(O)C(O)(Cc1ccc(O)c(O)c1)C(=O)O (racemic) ?
17
